LC50 (concentration killing 50% of cells) values for the compounds below.
Test system: SK-MEL-5
Assay: Cytotoxicity against human SK-MEL-5 cells assessed as growth inhibition after 48 hrs by sulforhodamine B assay
Type: functional
Details: SK-MEL-5, 48 h
Recorded endpoint: LC50 (concentration killing 50% of cells) (µM)

> print(dat)
                                 smiles.str  observed.measurement
1  COc1cc(-c2cc(/C=C/C(=O)c3ccc(F)c(F)c3)[nH]n2)cc(OC)c1OC                  26.7
2  COc1ccc(-c2cc(/C=C/C(=O)c3ccc(N)cc3)[nH]n2)cc1                  30.4
3  COc1ccc(-c2cc(/C=C/C(=O)c3cc(OC)c(OC)c(OC)c3)[nH]n2)cc1OC                  5.44
4  COc1cc(C(=O)/C=C/c2cc(-c3cc(OC)c(OC)c(OC)c3)n[nH]2)cc(OC)c1OC                  5.49
